study_system: Human VPS34 (Homo sapiens (Human), UniProt Q8NEB9)
Sequence (Q8NEB9 whole entry): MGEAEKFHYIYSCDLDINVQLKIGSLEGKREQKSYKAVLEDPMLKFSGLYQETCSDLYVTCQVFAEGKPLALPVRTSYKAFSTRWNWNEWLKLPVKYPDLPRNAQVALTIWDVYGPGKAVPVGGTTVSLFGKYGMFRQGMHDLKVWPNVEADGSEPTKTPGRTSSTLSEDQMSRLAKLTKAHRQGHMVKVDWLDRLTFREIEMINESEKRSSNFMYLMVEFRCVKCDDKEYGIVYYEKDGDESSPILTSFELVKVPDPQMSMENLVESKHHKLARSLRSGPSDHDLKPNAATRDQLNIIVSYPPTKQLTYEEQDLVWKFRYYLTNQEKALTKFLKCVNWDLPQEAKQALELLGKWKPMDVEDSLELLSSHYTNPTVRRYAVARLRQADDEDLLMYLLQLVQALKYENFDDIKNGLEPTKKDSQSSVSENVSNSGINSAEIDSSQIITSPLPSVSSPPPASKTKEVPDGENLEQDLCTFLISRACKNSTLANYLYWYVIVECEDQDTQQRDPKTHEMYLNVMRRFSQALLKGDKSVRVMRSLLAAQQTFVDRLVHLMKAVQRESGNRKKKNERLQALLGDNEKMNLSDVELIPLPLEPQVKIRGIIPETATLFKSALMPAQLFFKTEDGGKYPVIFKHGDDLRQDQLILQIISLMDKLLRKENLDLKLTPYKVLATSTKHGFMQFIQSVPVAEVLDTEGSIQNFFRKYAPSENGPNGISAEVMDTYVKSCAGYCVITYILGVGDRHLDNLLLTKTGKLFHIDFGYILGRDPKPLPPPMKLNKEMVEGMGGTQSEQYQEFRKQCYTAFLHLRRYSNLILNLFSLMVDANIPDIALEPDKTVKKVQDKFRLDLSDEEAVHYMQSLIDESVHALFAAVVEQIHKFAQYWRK
method_description: Human VPS34 enzyme assay (Adapta TR-FRET)
Assay type: biochemical
measurement_context: compound concentration 1.11 μM; read-out: Percent Inhibition
measurement_type: inhibition at 1.11 µM

Here are 3 compounds together with their reported answers.
1. Cc1ncc(-c2ccnc(Nc3ccnc(C(F)(F)F)n3)c2)cc1C(=O)N1CCC1 [Compound I-292] | 99%
2. CCc1c(-c2ccnc(NC(=O)C3CC3)c2)cnc(Cl)c1NS(=O)(=O)c1ccc(F)cc1F [Compound I-278] | > 99%
3. CC(=O)Nc1cc(-c2cnc3[nH]ncc3c2)ccn1 [Compound I-189] | > 99%

Alright, here's another compound for you.
**Q:** Please report inhibition at 1.11 µM with Human VPS34 (Homo sapiens (Human), UniProt Q8NEB9) for item CC(=O)Nc1cc(-c2cnc(C)c(NS(=O)(=O)c3ccccc3C)c2)ccn1 [Compound I-211] .
**A:** > 99%

---

study_system: Human VPS34 (Homo sapiens (Human))
method_description: Human VPS34 enzyme assay (Adapta TR-FRET)
Assay type: biochemical
measurement_context: compound concentration 1.11 μM; read-out: Percent Inhibition
Can you tell me inhibition at 1.11 µM for the items I'm about to list?
Give bare numbers, in %.

Field: example entries. Status: answers known.
1. CC(=O)Nc1cc(-c2cnc(C)c(NS(=O)(=O)c3ccc(Cl)cc3F)c2)ccn1 | 98
2. CC(=O)Nc1cc(-c2cnc(C)c(NS(=O)(=O)c3ccc(F)cc3F)c2)cc(C)n1 | 89
3. Cc1c(-c2ccnc(Nc3ncc(C#N)cn3)c2)cnc(Cl)c1NS(=O)(=O)c1ccc(F)cc1F | 96

# batch: return inhibition at 1.11 µM for each of the 3 molecules below
1. CC(=O)Nc1cc(-c2cncc(NC(=O)c3ccccc3)c2)ccn1
2. CC(=O)Nc1cc(-c2cnc(C)c(N(C)S(=O)(=O)C3CC3)c2)ccn1
3. Cc1c(-c2ccnc(Nc3ccnc(C4CC4)n3)c2)cnc(Cl)c1C(=O)N1CCC1

**A:**
1: 81; 2: 95; 3: 90

Value sought for every listed molecule: inhibition at 1.11 µM.
1. Cc1ncc(-c2ccnc(Nc3nc4ccccc4o3)c2)cc1NS(=O)(=O)c1ccc(F)cc1F
2. Cc1nccc(Nc2cc(-c3cncc(C(C)Oc4ccccc4F)c3)ccn2)n1 (centres unmarked)
3. Cc1nccc(Nc2cc(-c3cnc(C)c(C(=O)N4CCCC4)c3)ccn2)n1
4. CC(=O)Nc1cc(-c2cnc3c(c2)S(=O)(=O)NCCO3)ccn1

**A:**
[96, 96, 92, 92]

---

Kindly state inhibition at 1.11 µM for each of the entries shown.
study_system: Human VPS34 (Homo sapiens (Human))
method_description: Human VPS34 enzyme assay (Adapta TR-FRET)
Assay type: biochemical
measurement_context: compound concentration 1.11 μM; read-out: Percent Inhibition

The cases that follow already have their inhibition at 1.11 µM on record.
1) CC(=O)Nc1cc(-c2cnc(N)c(S(=O)(=O)Nc3cccc(Cl)c3)c2)ccn1 | > 99%
2) CC(=O)Nc1cc(-c2cnc(N)c(S(=O)(=O)NCc3cccnc3)c2)ccn1 | > 99%

Provide inhibition at 1.11 µM values for the following items, in order.
1. CC(=O)Nc1cc(-c2cnc(C)c(NS(=O)(=O)N3CCC(F)(F)CC3)c2)ccn1
2. CC(=O)Nc1cc(-c2cnc3c(c2)NS(=O)(=O)N3CC2CC2)ccn1
3. CC(=O)Nc1cc(-c2cnc(C)c(NS(=O)(=O)c3c(Cl)cccc3Cl)c2)ccn1
4. CC(=O)Nc1cc(-c2cnc(C)c(S(=O)(=O)Nc3ccc(F)cc3F)c2)ccn1

**A:**
["> 99%", "98%", "> 99%", "> 99%"]

Please state inhibition at 1.11 µM for every compound in the list that follows.
1. Cc1ncc(-c2ccnc(NC(=O)C3CC3(F)F)c2)cc1NS(=O)(=O)c1ccc(Cl)cc1F (centres unmarked)
2. CN(C(=O)c1cc(-c2ccnc(Nc3ccncn3)c2)cnc1N)C12CC(C1)C2
3. CC(=O)Nc1cc(-c2cnc(C)c(NS(=O)(=O)c3ccccc3)c2)ccn1
4. CC(=O)Nc1cc(-c2cnc(C#N)c(NS(=O)(=O)c3ccc(F)cc3F)c2)ccn1
5. CC(=O)Nc1cc(-c2cnc(C)c(NS(=O)(=O)c3ccc(F)cc3F)c2)c(C)cn1
6. CCN(CC)S(=O)(=O)c1cc(-c2ccnc(NC(C)=O)c2)cnc1C
7. COc1ncc(-c2ccnc(NC(C)=O)c2)c(C)c1S(=O)(=O)NC(C)(C)C

**A:**
> 99%
95%
> 99%
88%
> 99%
> 99%
> 99%

---

Answer each item with its documented inhibition at 1.11 µM.
study_system: Human VPS34 (Homo sapiens (Human))
method_description: Human VPS34 enzyme assay (Adapta TR-FRET)
Assay type: biochemical
measurement_context: compound concentration 1.11 μM; read-out: Percent Inhibition
Numbers only, in %.

Would you please look over these solved cases?
1. CC(=O)Nc1cc(-c2cncc(N(C)C(=O)c3ccc(F)cc3F)c2)ccn1 | 100
2. Cc1ccc2ccc(Nc3cc(-c4cnc(C)c(NS(=O)(=O)c5ccc(F)cc5F)c4)ccn3)nc2n1 | 92
3. Cc1nccc(Nc2cc(-c3cnc4c(c3)C(=O)N(Cc3ccccc3)CC4)ccn2)n1 | 66
4. Cc1nccc(Nc2cc(-c3cnc(C)c(NC(=O)Nc4ccccc4)c3)ccn2)n1 | 69
5. CC(=O)Nc1cc(-c2cnc(C)c(N3CCNS3(=O)=O)c2)ccn1 | 92

List inhibition at 1.11 µM for every entry below, keeping the order given.
1. Cc1ncc(-c2ccnc(NC(=O)C3CC3(F)F)c2)cc1NS(=O)(=O)N(C)C (centres unmarked)
2. Cc1c(-c2ccnc(Nc3ccnc(C4CC4)n3)c2)cnc(Cl)c1N
3. CC(=O)Nc1cc(-c2cnc(C)c(C(=O)N(C)c3ccc(F)cc3F)c2)ccn1
4. CC(=O)Nc1cc(-c2cncc(Nc3ncco3)c2)ccn1
5. Cc1nccc(Nc2cc(-c3cnc(Cl)c(N(C)C)c3C)ccn2)n1
6. Cc1nccc(Nc2cc(-c3cnc(Cl)c(S(=O)(=O)NC45CC(C4)C5)c3)ccn2)n1

**A:**
[82, 91, 100, 96, 91, 88]

---

study_system: Human VPS34 (Homo sapiens (Human), UniProt Q8NEB9)
method_description: Human VPS34 enzyme assay (Adapta TR-FRET)
Assay type: biochemical
measurement_context: compound concentration 1.11 μM; read-out: Percent Inhibition
Outcome label depends on inhibition at 1.11 µM relative to 90%: at/above gives T, below gives F.

Example results:
1) CC(=O)Nc1cc(-c2cnc(N)c(C(=O)N(C)C)c2)ccn1 | T
2) CC(=O)Nc1cc(-c2cncc(S(=O)(=O)NCc3ccccc3)c2)ccn1 | T
3) Cc1nccc(Nc2cc(-c3cnc(C)c(C(=O)N(C)C45CC(C4)C5)c3)ccn2)n1 | T
4) CCNC(=O)Nc1cc(-c2ccnc(Nc3ccnc(C)n3)c2)cnc1C | F
5) COC(=O)Nc1cc(-c2cncc(C(=O)C3CC3)c2)ccn1 | T
6) COc1ncc(-c2ccnc(Nc3ccnc(C)n3)c2)cc1C(=O)N(C)c1ccc(F)cc1F | T

**Q:** # bool: inhibition at 1.11 µM of "CC(=O)Nc1cc(-c2cnc(N)c(S(=O)(=O)Cc3ccc4ccccc4c3)c2)ccn1" >= 90%
**A:** F

**Q:** Check the entry "CNc1ncc(-c2ccnc(NC(C)=O)c2)cc1S(=O)(=O)N(C(C)C)C(C)C" : does inhibition at 1.11 µM equal or exceed 90%?
**A:** T

**Q:** Please tell me: is the compound "CC(=O)Nc1cc(-c2cnc3c(c2)S(=O)(=O)N(C)CN3)ccn1" at or over 90% in terms of inhibition at 1.11 µM?
**A:** T

**Q:** Is inhibition at 1.11 µM for "Cc1ncc(-c2ccnc(N)c2)cc1NS(=O)(=O)N(C)C" at or above 90%?
**A:** F

**Q:** Is inhibition at 1.11 µM at least 90%? Consider "CC(=O)Nc1cc(-c2cnc(Cl)c(NS(=O)(=O)c3ccc(C#N)cc3Cl)c2C)ccn1"
**A:** T

**Q:** Reported inhibition at 1.11 µM reaches at least 90% for "CC(=O)Nc1cc(-c2cnc(C)c(OS(=O)(=O)N(C)C)c2)ccn1" ?
**A:** T

**Q:** State whether the measured inhibition at 1.11 µM reaches 90%, counting equality as reaching it, for "CC(=O)Nc1cc(-c2cc(OS(=O)(=O)N(C)C)c3ccnn3c2)ccn1"
**A:** T

**Q:** API: above_or_equal(metric=inhibition at 1.11 µM, cutoff=90%) for item "COC(=O)Nc1cc(-c2cnc(Cl)c(NS(=O)(=O)c3ccc(F)cc3F)c2C)ccn1"
**A:** T

**Q:** Given the entry "CC(=O)Nc1cc(-c2cnc(Cl)c(NS(=O)(=O)c3ccc(F)cc3F)c2C)c(C)cn1" , answer whether its inhibition at 1.11 µM meets or surpasses 90%.
**A:** T

**Q:** Tell me whether inhibition at 1.11 µM is at least 90% here: "COC(=O)Nc1cc(-c2cnc(C)c(NS(=O)(=O)c3ccc(F)cc3F)c2)ccn1"
**A:** T

Just for reference, patent US9802960B2 is where these values come from.
